Test: in vivo
Details: both, cynomolgus monkey, iv, 30 mg/kg, Cmax

- Compound: "O=C(NN1C(=O)C2C3C=CC(C4CC34)C2C1=O)c1ccc(C(F)(F)F)cc1 (stereo not shown)"
  Cmax / ng/mL: 20100

###

Assay: in vivo
Conditions: female, New Zealand White, rabbit, po, 100 mg/kg

- Compound: "O=C(NN1C(=O)C2C3C=CC(C4CC34)C2C1=O)c1ccc(C(F)(F)F)cc1 (stereo not shown)"
  AUC(0-t): "8180 ng·h/mL"

###

Test: in vivo
Settings: male, New Zealand White, rabbit, po, 100 mg/kg

- Compound: "O=C(NN1C(=O)C2C3C=CC(C4CC34)C2C1=O)c1ccc(C(F)(F)F)cc1 (stereo not shown)"
  Cmax / ng/mL: 4480

###

Assay: in vivo
Details: both, cynomolgus monkey, iv, 15 mg/kg, Cmax
Quantity: Cmax (ng/mL)

- Compound: "O=C(NN1C(=O)C2C3C=CC(C4CC34)C2C1=O)c1ccc(C(F)(F)F)cc1 (stereo not shown) [ST-246]"
  U: "ng/mL"
  Reading: 7360

###

Test: in vivo
Settings: both, New Zealand White, rabbit, iv, 60 mg/kg, CL

- Molecule: "O=C(NN1C(=O)C2C3C=CC(C4CC34)C2C1=O)c1ccc(C(F)(F)F)cc1 (stereo not shown) [ST-246]"
  U: "mL/min/kg"
  clearance: 16.4

###

Assay: in vivo
Conditions: both, New Zealand White, rabbit, iv, 3 mg/kg, CL
Quantity: clearance (mL/min/kg)

- Molecule: "O=C(NN1C(=O)C2C3C=CC(C4CC34)C2C1=O)c1ccc(C(F)(F)F)cc1 (stereo not shown)"
  U: "mL/min/kg"
  Reading: 22.3

###

Test: in vivo
Conditions: male, New Zealand White, rabbit, iv, 60 mg/kg, Cmax
Quantity: Cmax (µg/mL)

- Compound: "O=C(NN1C(=O)C2C3C=CC(C4CC34)C2C1=O)c1ccc(C(F)(F)F)cc1 (stereo not shown)"
  Quantity: "Cmax"
  U: "µg/mL"
  Reading: 99.9

###

Assay: in vivo
Conditions: female, CD-1, mouse, iv, 75 mg/kg, Cmax

- Compound: "O=C(NN1C(=O)C2C3C=CC(C4CC34)C2C1=O)c1ccc(C(F)(F)F)cc1 (stereo not shown) [ST-246]"
  Cmax [µg/mL]: 238

###

Assay: in vivo
Conditions: female, CD-1, mouse, iv, 30 mg/kg
Quantity: clearance (mL/min/kg)

- Molecule: "O=C(NN1C(=O)C2C3C=CC(C4CC34)C2C1=O)c1ccc(C(F)(F)F)cc1 (stereo not shown)"
  Quantity: "clearance"
  Reading: 0.7

###

Experiment: in vivo
Settings: both, cynomolgus monkey, po, 30 mg/kg
Quantity: half-life (h)

- Molecule: "O=C(NN1C(=O)C2C3C=CC(C4CC34)C2C1=O)c1ccc(C(F)(F)F)cc1 (stereo not shown)"
  Quantity: "half-life"
  Reading: 17.7

###

Test: in vivo
Details: female, BALB/c, mouse, po, 300 mg/kg

- Compound: "O=C(NN1C(=O)C2C3C=CC(C4CC34)C2C1=O)c1ccc(C(F)(F)F)cc1 (stereo not shown) [ST-246]"
  U: "mL/min/kg"
  CL/F: 7.3

###

Experiment: in vivo
Conditions: both, cynomolgus monkey, iv, 30 mg/kg, Tmax

- Molecule: "O=C(NN1C(=O)C2C3C=CC(C4CC34)C2C1=O)c1ccc(C(F)(F)F)cc1 (stereo not shown) [ST-246]"
  Tmax: "4 h"

###

Assay: in vivo
Conditions: male, New Zealand White, rabbit, iv, 3 mg/kg, T1/2

- Molecule: "O=C(NN1C(=O)C2C3C=CC(C4CC34)C2C1=O)c1ccc(C(F)(F)F)cc1 (stereo not shown)"
  half-life [h]: 3.2

###

Experiment: in vivo
Conditions: both, cynomolgus monkey, iv, 1 mg/kg, T1/2
Quantity: half-life (h)

- Molecule: "O=C(NN1C(=O)C2C3C=CC(C4CC34)C2C1=O)c1ccc(C(F)(F)F)cc1 (stereo not shown)"
  Reading: 6.6

###

Test: in vivo
Details: both, cynomolgus monkey, po, 10 mg/kg
Quantity: half-life (h)

- Compound: "O=C(NN1C(=O)C2C3C=CC(C4CC34)C2C1=O)c1ccc(C(F)(F)F)cc1 (stereo not shown) [ST-246]"
  Reading: 7

###

Assay: in vivo
Settings: both, cynomolgus monkey, iv, 10 mg/kg, Tmax

- Molecule: "O=C(NN1C(=O)C2C3C=CC(C4CC34)C2C1=O)c1ccc(C(F)(F)F)cc1 (stereo not shown) [ST-246]"
  U: "h"
  Tmax: 4

###

Test: in vivo
Details: female, BALB/c (oral), CD-1 (IV), mouse, 30 mg/kg

- Molecule: "O=C(NN1C(=O)C2C3C=CC(C4CC34)C2C1=O)c1ccc(C(F)(F)F)cc1 (stereo not shown)"
  bioavailability: "~41%"

###

Experiment: in vivo
Conditions: female, CD-1, mouse, iv

- Molecule: "O=C(NN1C(=O)C2C3C=CC(C4CC34)C2C1=O)c1ccc(C(F)(F)F)cc1 (stereo not shown)"
  half-life: "2.5 to 4.5 h"

###

Test: in vivo
Conditions: female, New Zealand White, rabbit, iv, 30 mg/kg, T1/2

- Molecule: "O=C(NN1C(=O)C2C3C=CC(C4CC34)C2C1=O)c1ccc(C(F)(F)F)cc1 (stereo not shown) [ST-246]"
  half-life / h: 16.3

###

Test: in vivo
Settings: male, New Zealand White, rabbit, iv, 1 mg/kg, AUC0-24

- Compound: "O=C(NN1C(=O)C2C3C=CC(C4CC34)C2C1=O)c1ccc(C(F)(F)F)cc1 (stereo not shown)"
  AUC(0-t) / ng·h/mL: 1710

###

Experiment: in vivo
Settings: female, CD-1, mouse, iv, 10 mg/kg, AUC0-24 hr

- Molecule: "O=C(NN1C(=O)C2C3C=CC(C4CC34)C2C1=O)c1ccc(C(F)(F)F)cc1 (stereo not shown)"
  U: "µg·h/mL"
  AUC(0-t): 408

###

Experiment: in vivo
Details: both, cynomolgus monkey, iv, 10 mg/kg
Quantity: AUC(0-t) (ng·h/mL)

- Compound: "O=C(NN1C(=O)C2C3C=CC(C4CC34)C2C1=O)c1ccc(C(F)(F)F)cc1 (stereo not shown)"
  Quantity: "AUC(0-t)"
  Reading: 21100

###

Assay: in vivo
Details: female, BALB/c, mouse, po, 1000 mg/kg

- Compound: "O=C(NN1C(=O)C2C3C=CC(C4CC34)C2C1=O)c1ccc(C(F)(F)F)cc1 (stereo not shown)"
  CL/F, mL/min/kg: 18.9

###

Experiment: in vivo
Settings: both, cynomolgus monkey, po, 20 mg/kg, Cmax

- Compound: "O=C(NN1C(=O)C2C3C=CC(C4CC34)C2C1=O)c1ccc(C(F)(F)F)cc1 (stereo not shown)"
  Cmax (ng/mL): 1480

###

Assay: in vivo
Conditions: female, BALB/c, mouse, po, 100 mg/kg

- Compound: "O=C(NN1C(=O)C2C3C=CC(C4CC34)C2C1=O)c1ccc(C(F)(F)F)cc1 (stereo not shown)"
  CL/F, mL/min/kg: 3.65

###

Experiment: in vivo
Conditions: both, cynomolgus monkey, iv, 30 mg/kg, T1/2
Quantity: half-life (h)

- Molecule: "O=C(NN1C(=O)C2C3C=CC(C4CC34)C2C1=O)c1ccc(C(F)(F)F)cc1 (stereo not shown) [ST-246]"
  Reading: 7.8

###

Test: in vivo
Conditions: female, BALB/c, mouse, po, 1000 mg/kg
Quantity: half-life (h)

- Compound: "O=C(NN1C(=O)C2C3C=CC(C4CC34)C2C1=O)c1ccc(C(F)(F)F)cc1 (stereo not shown) [ST-246]"
  Reading: 4.5

###

Experiment: in vivo
Details: male, BALB/c, mouse, iv, 2.3 mg/kg, Cmax

- Molecule: "O=C(NN1C(=O)C2C3C=CC(C4CC34)C2C1=O)c1ccc(C(F)(F)F)cc1 (stereo not shown)"
  U: "ng/mL"
  Cmax: 20000

###

Assay: in vivo
Details: male, New Zealand White, rabbit, po, 100 mg/kg

- Compound: "O=C(NN1C(=O)C2C3C=CC(C4CC34)C2C1=O)c1ccc(C(F)(F)F)cc1 (stereo not shown)"
  U: "h"
  half-life: 6

###

Test: in vivo
Conditions: female, BALB/c, mouse, po
Quantity: half-life

- Compound: "O=C(NN1C(=O)C2C3C=CC(C4CC34)C2C1=O)c1ccc(C(F)(F)F)cc1 (stereo not shown)"
  Reading: "2.2 to 4.5 h"

###

Experiment: in vivo
Details: both, cynomolgus monkey, iv, 20 mg/kg, T1/2

- Compound: "O=C(NN1C(=O)C2C3C=CC(C4CC34)C2C1=O)c1ccc(C(F)(F)F)cc1 (stereo not shown)"
  half-life / h: 8.7

###

Assay: in vivo
Settings: female, CD-1, mouse, iv, 75 mg/kg, AUC0-24 hr

- Molecule: "O=C(NN1C(=O)C2C3C=CC(C4CC34)C2C1=O)c1ccc(C(F)(F)F)cc1 (stereo not shown) [ST-246]"
  AUC(0-t) [µg·h/mL]: 1250
